Provenance of the data: paper PMC10530836

# Tested on: Aspergillus flavus
# protocol text: Antimicrobial activity, agar well diffusion
# Type: cell-based
# condition summary: Dose 0.6 mg/disk, dwell = 6 mm
Listed here: items and their measured Inhibition Zones.
Put your answer as a value accompanied by its unit after it.

Look over these answered cases.
O=C(Cc1ccccc1)Nc1ccccc1C(=O)NCCc1cccc(Cl)c1 ... 8 mm
O=C(Nc1ccccc1C(=O)NCCc1cccc(Cl)c1)c1ccccc1Cl ... 11 mm

Query: Look up Inhibition Zones with Aspergillus flavus for this molecule: Nc1ccccc1C(=O)NCCc1cccc(Cl)c1 [Compound 3, 2-amino-N-(3-chlorophenethyl)benzamide]
Reply: 20 mm

Query: Look up Inhibition Zones with Aspergillus flavus for this molecule: O=C(Nc1ccccc1C(=O)NCCc1cccc(Cl)c1)c1ccccc1
Reply: 13 mm

Query: Look up Inhibition Zones with Aspergillus flavus for this molecule: O=C(NCCc1cccc(Cl)c1)c1ccccc1NC(=O)C(Cl)c1ccccc1 (stereo not drawn)
Reply: 8 mm

Query: Look up Inhibition Zones with Aspergillus flavus for this molecule: CC(=O)Nc1ccccc1C(=O)NCCc1cccc(Cl)c1
Reply: 8 mm

* * *

# protocol text: MTT cell viability assay
# Type: cell-based
# condition summary: human, LAMA-84 myeloid leukemia cells (suspension); LAMA-84, MTT, 72 h exposure, ± SD; read-out: In vitro cytotoxicity IC50
Listed here: items and their measured IC50 at 72 h.
Give just the numeric value; µM need not be written.

Look over these answered cases.
CC(=O)Nc1ccccc1C(=O)NCCc1cccc(Cl)c1 ... 112
O=C(Nc1ccccc1C(=O)NCCc1cccc(Cl)c1)c1ccccc1 ... 60.7
Nc1ccccc1C(=O)NCCc1cccc(Cl)c1 [Compound 3, 2-amino-N-(3-chlorophenethyl)benzamide] ... 115
O=C(NCCc1cccc(Cl)c1)c1ccccc1NC(=O)C(Cl)c1ccccc1 (stereo not drawn) ... 193
O=C(Nc1ccccc1C(=O)NCCc1cccc(Cl)c1)c1ccccc1Cl ... 183

Query: Look up IC50 at 72 h for this compound: O=C(Cc1ccccc1)Nc1ccccc1C(=O)NCCc1cccc(Cl)c1
Reply: 31.6

* * *

# Test system: Salmonella enteritidis ATCC 13076
# protocol text: Antimicrobial activity, agar well diffusion
# Format: cell-based
# condition summary: Dose 0.6 mg/disk, dwell = 6 mm
value type: Inhibition Zones (mm)
Give just the numeric value; mm need not be written.

Look over these answered cases.
O=C(Cc1ccccc1)Nc1ccccc1C(=O)NCCc1cccc(Cl)c1 [Compound 4c] ... 8
O=C(Nc1ccccc1C(=O)NCCc1cccc(Cl)c1)c1ccccc1Cl [Compound 4d] ... 10
O=C(Nc1ccccc1C(=O)NCCc1cccc(Cl)c1)c1ccccc1 [Compound 4b] ... 8
CC(=O)Nc1ccccc1C(=O)NCCc1cccc(Cl)c1 [Compound 4a] ... 12
Nc1ccccc1C(=O)NCCc1cccc(Cl)c1 [Compound 3, 2-amino-N-(3-chlorophenethyl)benzamide] ... 12

Could you now look at the following compound, please?
Query: Look up Inhibition Zones for this compound: O=C(NCCc1cccc(Cl)c1)c1ccccc1NC(=O)C(Cl)c1ccccc1 (stereo not drawn) [Compound 4e]
Reply: 11
